# measured target: T1, VHH-D9-scTRAIL (llama (Lama glama) | )
# T1 construct: nanobody D9, as the VHH of m4 without its His tag; TRAIL (Tumor Necrosis Factor-Related Apoptosis-Inducing Ligand) fragment, first of three in single-chain TRAIL; short peptide linker between TRAIL fragments; TRAIL fragment, second of three in single-chain TRAIL; TRAIL fragment, third of three in single-chain TRAIL; a linker between VHH and scTRAIL is not described; Vector tags were eliminated by …
# method description: ELISA; plates coated with 500 ng h1x or h2x, blocked with 3% BSA; Ab-scTRAIL constructs (CHO-K1 supernatants, not further purified) incubated 2 h at different concentrations; detected with the anti-TRAIL conjugate of the Quantikine TRAIL ELISA kit; apparent affinities
# test context: one partner purified
reported metric: Kd (nM)
Please state the figure in nM; there is no need to write the unit.

Report measured Kd; entry is h1x antigen (E3-S5-pore segment fused to the C-terminal coiled coil domain of Kv10.1 and to thioredoxin) (domain or fragment, human, Kv10.1 voltage-gated potassium channel, E3 segment (extracellular linker between S5 and S6 transmembrane segments, extending to the pore loop); numbers count on: Homo sapiens Kv10.1, isoform 1 (UniProt O95259-2); Kv10.1 voltage-gated potassium channel, C-terminal tetramerizing coiled-coil (C-terminal assembly domain); The coiled coil was added with the aim to induce tetramerization; the …) IGDYEIFDEDTKTIRNNSWLYQLAMDIGTPYQFNGSGSGKWEGGPSKNSVYISSLYFTMTSLTSVGFGNIAPSTDIEK
0.029

The measurements presented in this section are drawn from paper PMC7246340.
